Measured cell viability of individual entries
Test system: P12-Ichikawa
Experiment: cell viability relative to DMSO control; higher = less cytotoxic
Conditions: RPMI 5 mM glucose + 10% FBS; 48 h; 0.00234 µM

{"columns": ["itemSmiles", "testTarget", "measurementName", "measured"],
 "data": [
  ["O=C(CCCCCCC(=O)Nc1ccc([C@H]2O[C@@H](CSc3nc(-c4ccccc4)c(-c4ccccc4)o3)C[C@@H](c3ccc(CO)cc3)O2)cc1)NO", "P12-Ichikawa", "cell viability", "122%"],
  ["C[C@@H]1CCN(C(=O)CC#N)C[C@@H]1N(C)c1ncnc2[nH]ccc12", "P12-Ichikawa", "cell viability", "85.6%"],
  ["C[C@]12Cc3cn[nH]c3C[C@@H]1CC[C@@H]1[C@@H]2CC[C@@]2(C)[C@H]1CC[C@]2(C)O", "P12-Ichikawa", "cell viability", "64.2%"]
]}

INPUT: For the compound C[C@@H]1O[C@@H](O[C@H]2C[C@@H](O)[C@]3(CO)[C@H]4[C@H](O)C[C@]5(C)[C@@H](C6=CC(=O)OC6)CC[C@]5(O)[C@@H]4CC[C@]3(O)C2)[C@H](O)[C@H](O)[C@H]1O , give its measured cell viability value.
OUTPUT: 105%

---

System: P12-Ichikawa
Assay: cell viability relative to DMSO control; higher = less cytotoxic
Conditions: HPLM + 10% dialyzed FBS; 48 h; 0.00702 µM
measurementName: cell viability (%)
API: value field is a number in %; no unit string.

{"columns": ["compound", "cell viability, %"],
 "data": [
  ["CN(C)C1=CC(=CC=C1)C\\2=C\\3C(=O)N(NC3=C/C(=O)N2C)C4=CC=CC=C4Cl", 106],
  ["O=[N+]([O-])c1ncc[nH]1", 88.2],
  ["CCOC(=O)[C@@]1(CCCCCCOc2ccc(Cl)cc2)CO1", 117],
  ["Cc1cc(OCCC[S+](C)(=O)[O-])cc(C)c1-c1cccc(COc2ccc3c(c2)OC[C@H]3CC(=O)O)c1", 98.1],
  ["CCN1\\C=C(\\C(O)=O)C(=O)C2=C1N=C(N3CCNCC3)C(=C2)F", 85.8]
]}

INPUT: For the compound C[C@H](CCC(=O)O)[C@H]1CCC2C3C[C@H](O)[C@@H]4C[C@H](O)CC[C@]4(C)C3CC[C@@]21C (stereo not given in full) , give its measured cell viability value.
OUTPUT: 101

INPUT: For the compound CC1=C(/C=C/C(C)=C/C=C/C(C)=C\C(=O)O)C(C)(C)CCC1 , give its measured cell viability value.
OUTPUT: 90.2

INPUT: For the compound CC[S+](=O)([O-])Nc1ccc2c(c1)/C(=C(/Nc1ccc(CN3CCCCC3)cc1)c1ccccc1)C(=O)N2 , give its measured cell viability value.
OUTPUT: 115

INPUT: For the compound O=C(NCCCCN1CCOCC1)c1cc2ccccc2o1 , give its measured cell viability value.
OUTPUT: 119

INPUT: For the compound Cc1cc(O)c2c(c1)C(=O)c1cccc(O)c1C2=O , give its measured cell viability value.
OUTPUT: 119

---

System: SEM cells
Assay: cell viability relative to DMSO control; higher = less cytotoxic
Conditions: RPMI 5 mM glucose + 10% FBS; 48 h; 0.00702 µM
Measured cell viability of individual entries
API: value field is a number in %; no unit string.

Before answering, review these 10 worked examples.
{"columns": ["molecule", "displayUnit", "cell viability"],
 "data": [
  ["CC(C)=CCC/C(C)=C/CC/C(C)=C/CC/C(C)=C/CC/C(C)=C/CC/C(C)=C/CC/C(C)=C/CC/C(C)=C/CC/C(C)=C/CO", "%", 121],
  ["N\\C1=N\\C2=C(N=C[N]2COCCO)C(=O)N1", "%", 106],
  ["N[S+](=O)([O-])c1cc2c(cc1Cl)NC(C(Cl)Cl)N[S+]2(=O)[O-] (centres undefined)", "%", 90.3],
  ["C[N]1C=C(C2=CC=CC=C12)\\C3=C(\\C(=O)NC3=O)C4=C[N](C5CCN(CC5)CC6=NC=CC=C6)C7=C4C=CC=C7", "%", 114],
  ["CC(=O)OC[C@H]1O[C@@H]([S-])[C@H](OC(C)=O)[C@@H](OC(C)=O)[C@@H]1OC(C)=O.CCP(CC)CC.[Au+]", "%", 87.3],
  ["CC(C)(S)[C@@H](N)C(=O)O", "%", 100],
  ["CCc1cc2c(cc1N1CCC(N3CCOCC3)CC1)C(C)(C)c1[nH]c3cc(C#N)ccc3c1C2=O", "%", 71.1],
  ["Cc1cn([C@H]2C=C[C@@H](CO)O2)c(=O)[nH]c1=O", "%", 109],
  ["Cc1ccc(C(=O)Nc2cccc(C(F)(F)F)c2)cc1-c1ccc2nc(NCCN3CCOCC3)ncc2c1", "%", 112],
  ["CCOc1cc2ncc(C#N)c(Nc3ccc(F)c(Cl)c3)c2cc1NC(=O)/C=C/CN(C)C", "%", 108]
]}

Attention now turns to another entry.
INPUT: For the molecule N#CC(c1ccnc(NCCc2cccnc2)n1)c1nc2ccccc2s1 (centres undefined) , give its measured cell viability value.
OUTPUT: 144
